# systemTested: 17-beta-hydroxysteroid dehydrogenase type 3 (Homo sapiens, UniProt P37058)
# Sequence (P37058 whole entry): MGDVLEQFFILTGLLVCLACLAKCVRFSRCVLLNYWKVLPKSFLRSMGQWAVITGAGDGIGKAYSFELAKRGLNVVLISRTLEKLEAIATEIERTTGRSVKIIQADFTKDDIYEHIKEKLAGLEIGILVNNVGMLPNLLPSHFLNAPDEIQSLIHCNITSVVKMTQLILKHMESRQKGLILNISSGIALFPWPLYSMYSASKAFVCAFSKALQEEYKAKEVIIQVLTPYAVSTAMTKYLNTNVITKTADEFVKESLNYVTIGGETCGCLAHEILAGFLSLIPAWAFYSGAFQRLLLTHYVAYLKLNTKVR
# assayDetails: Inhibition of human 17beta-HSD3 expressed in HeLa cells
measuredQuantity: IC50 (nM)
Answer format: numeric, nM implied, no suffix.

Req: Item "Cc1cccc(OCCc2cc(=O)oc3cc(O)ccc23)n1" has what recorded IC50?
Resp: 1000

Req: What do you have for "O=c1cc(COc2ccccc2)c2ccc(O)cc2o1" ?
Resp: 10000

Req: What do you have for O=c1cc(CSC2NCCS2)c2ccc(O)cc2o1 (configuration not stated) ?
Resp: 96

Req: What do you have for "Cc1c(F)c(=O)oc2cc(O)ccc12" ?
Resp: 1000

Req: What do you have for "Cc1c(C#N)c(=O)oc2cc(O)ccc12" ?
Resp: 1000

Req: What do you have for "CCCc1c(C)c2ccc(O)cc2oc1=O" ?
Resp: 240

Req: What do you have for "Cc1c(Cc2ccccc2)c(=O)oc2cc(O)ccc12" ?
Resp: 200

Req: What do you have for "Cn1ccnc1SCc1cc(=O)oc2cc(O)ccc12" ?
Resp: 91

Req: What do you have for "O=c1cc(CNc2ccccc2)c2ccc(O)cc2o1" ?
Resp: 4000

Req: What do you have for "COCc1cc(=O)oc2cc(O)ccc12" ?
Resp: 5000

Req: What do you have for "O=c1cc(CSc2ccc(C(F)(F)F)cn2)c2ccc(O)cc2o1" ?
Resp: 230

Req: What do you have for "CN(Cc1cc(=O)oc2cc(O)ccc12)c1ccccc1" ?
Resp: 6000

Req: What do you have for "O=c1cc(CSc2ccc([N+](=O)[O-])cn2)c2ccc(O)cc2o1" ?
Resp: 88

Req: What do you have for "O=c1cc(-c2ccccc2)c2ccc(O)cc2o1" ?
Resp: 1000

Req: What do you have for "O=c1oc2cc(O)ccc2c(C(F)(F)F)c1Cc1ccccc1" ?
Resp: 30

Req: What do you have for "Cc1c(C)c2ccc(O)cc2oc1=O" ?
Resp: 210

Req: What do you have for "Cc1cccc(CCc2cc(=O)oc3cc(O)ccc23)n1" ?
Resp: 8

Req: What do you have for "O=c1cc(CSc2nncs2)c2ccc(O)cc2o1" ?
Resp: 200

Req: What do you have for "Cc1c(Cl)c(=O)oc2cc(O)ccc12" ?
Resp: 100

Req: What do you have for "O=c1cc(CSc2nccs2)c2ccc(O)cc2o1" ?
Resp: 10

Req: What do you have for "O=c1cc(CSc2ccncc2)c2ccc(O)cc2o1" ?
Resp: 5000

Req: What do you have for "O=c1cc(CCc2ccccc2)c2ccc(O)cc2o1" ?
Resp: 20

Req: What do you have for "O=c1cc(Cc2ccccc2)c2ccc(O)cc2o1" ?
Resp: 10000

Req: What do you have for "CCCc1cc(=O)oc2cc(O)ccc12" ?
Resp: 59

Req: What do you have for "Cc1cccc(SCc2c(Cl)c(=O)oc3cc(O)ccc23)n1" ?
Resp: 47

Req: What do you have for "Cc1cccc(SCc2cc(=O)oc3cc(O)ccc23)n1" ?
Resp: 1.5

Req: What do you have for "O=c1cc(CSc2ccccc2)c2ccc(O)cc2o1" ?
Resp: 93

----------
# systemTested: Androgen receptor (Homo sapiens)
# Sequence (P10275 whole entry): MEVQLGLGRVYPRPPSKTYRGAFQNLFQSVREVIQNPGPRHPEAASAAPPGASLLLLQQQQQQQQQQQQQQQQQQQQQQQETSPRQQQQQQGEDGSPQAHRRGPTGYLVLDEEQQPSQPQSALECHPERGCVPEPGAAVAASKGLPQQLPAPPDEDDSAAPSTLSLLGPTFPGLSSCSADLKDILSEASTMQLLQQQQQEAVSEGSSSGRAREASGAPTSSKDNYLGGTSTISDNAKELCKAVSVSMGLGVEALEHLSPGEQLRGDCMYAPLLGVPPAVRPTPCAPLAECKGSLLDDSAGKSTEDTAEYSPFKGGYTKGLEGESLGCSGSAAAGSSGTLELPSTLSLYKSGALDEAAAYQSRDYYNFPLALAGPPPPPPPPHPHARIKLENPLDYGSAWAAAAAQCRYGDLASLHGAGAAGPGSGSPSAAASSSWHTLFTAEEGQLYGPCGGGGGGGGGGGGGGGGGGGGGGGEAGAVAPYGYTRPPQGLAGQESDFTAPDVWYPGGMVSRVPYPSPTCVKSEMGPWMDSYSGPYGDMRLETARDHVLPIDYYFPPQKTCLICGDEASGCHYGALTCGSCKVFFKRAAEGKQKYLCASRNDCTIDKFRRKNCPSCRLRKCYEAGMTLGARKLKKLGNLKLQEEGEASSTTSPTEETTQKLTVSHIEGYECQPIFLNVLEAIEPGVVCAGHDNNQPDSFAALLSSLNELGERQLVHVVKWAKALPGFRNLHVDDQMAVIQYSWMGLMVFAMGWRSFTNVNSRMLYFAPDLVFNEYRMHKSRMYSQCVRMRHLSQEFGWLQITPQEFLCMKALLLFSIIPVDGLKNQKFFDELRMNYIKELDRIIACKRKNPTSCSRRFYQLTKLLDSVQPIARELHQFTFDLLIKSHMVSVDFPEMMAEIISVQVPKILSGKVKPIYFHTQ
# assayDetails: Antagonist activity at AR by reporter gene assay
# Type: functional
# experimentalParameters: read-out: IC50
measuredQuantity: IC50 (µM)
Answer format: numeric, µM implied, no suffix.

Req: Item "O=c1oc2cc(O)ccc2c(C(F)(F)F)c1Cc1ccccc1" has what recorded IC50?
Resp: 6

Req: What do you have for "Cc1cccc(SCc2cc(=O)oc3cc(O)ccc23)n1" ?
Resp: 50

----------
# systemTested: 17-beta-hydroxysteroid dehydrogenase type 3 (Homo sapiens, UniProt P37058)
# assayDetails: Inhibition of human 17beta-HSD3 expressed in HeLa cells
# Assay type: cell-based
measuredQuantity: pIC50
Reminder that pIC50 means the negative base-10 logarithm of the concentration expressed in mol/L.

Req: Item "O=c1cc(CSc2ccccn2)c2ccc(O)cc2o1" has what recorded pIC50?
Resp: 8.52

Req: What do you have for "O=c1oc2cc(O)ccc2c(C(F)(F)F)c1CSc1ccccn1" ?
Resp: 6.49

Req: What do you have for "CCc1cc(=O)oc2cc(O)ccc12" ?
Resp: 7.00

Req: What do you have for "Cc1cccc(SCc2c(F)c(=O)oc3cc(O)ccc23)n1" ?
Resp: 7.57

Req: What do you have for "O=c1cc(C(F)(F)F)c2ccc(O)cc2o1" ?
Resp: 6.72

Req: What do you have for Cc1cc(=O)oc2cc(O)ccc12 [HYMECROMONE] ?
Resp: 6.00

Req: What do you have for "O=c1cc(CSc2cccs2)c2ccc(O)cc2o1" ?
Resp: 6.38

Req: What do you have for "O=c1cc(CSc2ncccn2)c2ccc(O)cc2o1" ?
Resp: 6.00

Req: What do you have for "Cc1cc2ccc(O)cc2oc1=O" ?
Resp: 6.00

----------
# systemTested: Estrogen receptor (Homo sapiens, UniProt P03372)
# Sequence (P03372 whole entry): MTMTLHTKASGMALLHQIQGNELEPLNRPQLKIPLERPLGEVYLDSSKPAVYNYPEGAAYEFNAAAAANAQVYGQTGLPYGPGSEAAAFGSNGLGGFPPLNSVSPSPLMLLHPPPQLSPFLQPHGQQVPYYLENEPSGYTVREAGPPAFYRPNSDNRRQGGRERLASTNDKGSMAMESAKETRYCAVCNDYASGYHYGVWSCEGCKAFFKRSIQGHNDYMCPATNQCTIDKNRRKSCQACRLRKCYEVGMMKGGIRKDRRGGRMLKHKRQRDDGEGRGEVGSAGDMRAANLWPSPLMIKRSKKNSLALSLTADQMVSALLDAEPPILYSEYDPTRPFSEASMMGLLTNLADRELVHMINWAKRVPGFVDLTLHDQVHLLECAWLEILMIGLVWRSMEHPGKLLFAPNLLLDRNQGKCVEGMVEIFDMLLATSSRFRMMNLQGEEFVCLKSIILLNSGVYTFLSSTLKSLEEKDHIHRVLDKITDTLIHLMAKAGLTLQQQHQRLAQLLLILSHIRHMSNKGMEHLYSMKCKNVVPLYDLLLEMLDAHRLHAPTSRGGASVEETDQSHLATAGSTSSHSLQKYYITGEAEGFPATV
# assayDetails: Agonist activity at ER by reporter gene assay
# Type: functional
# experimentalParameters: read-out: IC50
For each entry below, report its pIC50 value.
Reminder that pIC50 means the negative base-10 logarithm of the concentration expressed in mol/L.

Req: Item "Cc1cccc(SCc2cc(=O)oc3cc(O)ccc23)n1" has what recorded pIC50?
Resp: 4.30

Req: What do you have for "O=c1oc2cc(O)ccc2c(C(F)(F)F)c1Cc1ccccc1" ?
Resp: 6.00
